target: NACHT, LRR and PYD domains-containing protein 3 (Homo sapiens)
Sequence (Q96P20 whole entry, the tested form may be a part): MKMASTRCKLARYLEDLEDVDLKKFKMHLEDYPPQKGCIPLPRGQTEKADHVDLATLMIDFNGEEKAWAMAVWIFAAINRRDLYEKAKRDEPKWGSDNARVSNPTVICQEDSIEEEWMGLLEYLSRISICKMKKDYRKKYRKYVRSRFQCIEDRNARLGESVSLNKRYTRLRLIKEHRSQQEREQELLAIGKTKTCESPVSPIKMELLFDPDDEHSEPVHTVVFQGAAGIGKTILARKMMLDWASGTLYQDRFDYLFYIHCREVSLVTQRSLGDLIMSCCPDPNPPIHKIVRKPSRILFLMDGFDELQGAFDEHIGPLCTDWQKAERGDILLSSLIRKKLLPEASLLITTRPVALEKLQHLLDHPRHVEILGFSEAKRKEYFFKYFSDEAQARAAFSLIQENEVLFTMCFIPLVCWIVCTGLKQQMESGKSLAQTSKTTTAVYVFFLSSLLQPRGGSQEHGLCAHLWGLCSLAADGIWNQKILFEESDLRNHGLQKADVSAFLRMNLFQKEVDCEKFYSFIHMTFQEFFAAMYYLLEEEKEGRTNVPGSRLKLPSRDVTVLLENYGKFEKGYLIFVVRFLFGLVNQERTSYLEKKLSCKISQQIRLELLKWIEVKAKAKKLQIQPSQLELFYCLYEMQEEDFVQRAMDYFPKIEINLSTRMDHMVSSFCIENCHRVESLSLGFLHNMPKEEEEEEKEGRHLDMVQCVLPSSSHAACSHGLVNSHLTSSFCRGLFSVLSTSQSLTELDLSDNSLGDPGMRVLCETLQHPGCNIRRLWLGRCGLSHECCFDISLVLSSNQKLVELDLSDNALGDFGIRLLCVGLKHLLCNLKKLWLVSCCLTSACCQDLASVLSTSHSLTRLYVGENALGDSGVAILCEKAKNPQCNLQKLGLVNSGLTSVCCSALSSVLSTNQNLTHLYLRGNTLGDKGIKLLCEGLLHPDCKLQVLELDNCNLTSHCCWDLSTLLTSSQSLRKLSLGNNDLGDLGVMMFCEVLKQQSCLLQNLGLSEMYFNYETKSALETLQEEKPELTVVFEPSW
Listing of recorded IC50 by entry.
Report the figure in nM without appending any unit label.

Past entries and their recorded results:
>>> df
                                        smi  measure_unit  data_value
0  Cc1cc(Br)cc(C)c1-n1cc2c(=O)[nH]c(N3CCOC[C@H]3C)nc2n1            nM         6.8
1  COC1(C)CN(c2nc3nn(-c4c(C)cc(Br)cc4C)cc3c(=O)n2C)C1            nM         130
2  Cc1cc(Br)cc(C)c1-n1cc2c(=O)[nH]c(N3CCO[C@H](C)C3)nc2n1            nM          17

Now for the molecule whose IC50 we want.
Request: State IC50 (NACHT, LRR and PYD domains-containing protein 3 (Homo sapiens)) of Cc1cc(Br)cc(C)c1-n1cc2c(=O)[nH]c(N3C[C@@H](C)O[C@@H](C)C3)nc2n1 .
Result: 80
